The values you see were collected from ChEMBL document CHEMBL1275392.

Would you mind telling me the reported log10 of GI50 of each entry?
# procedureText: Growth inhibition of human p53 deficient H1299 cells after 7 days by celltiter-glo assay
# Assay type: functional
# particulars: NCI-H1299, 168 h
Values below are the log10 of the recorded GI50, with nM as the unit.

{"columns": ["molecule", "log10 of GI50"],
 "data": [
  ["O=C(O)CCCc1ccc(N(CCCl)CCCl)cc1 [CHLORAMBUCIL]", 3.69],
  ["CON(CCCc1ccc(N(CCCl)CCCl)cc1)C1O[C@H](CO)[C@@H](O[C@@H]2O[C@H](CO)[C@H](O)[C@H](O)[C@H]2O)[C@H](O)[C@@H]1O (some centres not stated)", 4.38],
  ["CON(CCCc1ccc(N(CCCl)CCCl)cc1)[C@@H]1O[C@H](CO[C@@H]2O[C@H](CO)[C@H](O)[C@H](O)[C@H]2O)[C@@H](O)[C@H](O)[C@H]1O", 4.25],
  ["CON(CCCc1ccc(N(CCCl)CCCl)cc1)[C@H]1OC[C@H](O)[C@@H](O)[C@@H]1O", 2.97],
  ["CON(CCCc1ccc(N(CCCl)CCCl)cc1)C1OC[C@H](O)[C@@H](O)[C@H]1O (some centres not stated)", 2.94],
  ["CON(CCCc1ccc(N(CCCl)CCCl)cc1)[C@H]1O[C@H](CO)[C@H](O)[C@H](O)[C@@H]1O", 3.48],
  ["CON(CCCc1ccc(N(CCCl)CCCl)cc1)C1O[C@H](CN)[C@@H](O)[C@H](O)[C@H]1O (some centres not stated)", 3.04],
  ["CON(CCCc1ccc(N(CCCl)CCCl)cc1)[C@@H]1O[C@H](CO)[C@H](O)[C@H](O)[C@@H]1O", 3.38],
  ["CON(CCCc1ccc(N(CCCl)CCCl)cc1)C1OC[C@H](O)[C@H]1O (some centres not stated)", 2.86],
  ["CON(CCCc1ccc(N(CCCl)CCCl)cc1)C1O[C@H](CO)[C@@H](O[C@@H]2O[C@H](CO)[C@@H](O)[C@H](O)[C@H]2O)[C@H](O)[C@H]1O (some centres not stated)", 3.26]
]}

For each of the molecules below, state log10 of GI50.
1. CON(CCCc1ccc(N(CCCl)CCCl)cc1)[C@@H]1O[C@H](C(=O)O)[C@@H](O)[C@H](O)[C@H]1O
2. CON(CCCc1ccc(N(CCCl)CCCl)cc1)C1O[C@@H](C)[C@H](OC(C)=O)[C@@H](OC(C)=O)[C@H]1OC(C)=O (some centres not stated)
3. CON(CCCc1ccc(N(CCCl)CCCl)cc1)C1O[C@@H](C)[C@@H](OCc2ccccc2)[C@@H](OCc2ccccc2)[C@@H]1OCc1ccccc1 (some centres not stated)
4. CON(CCCc1ccc(N(CCCl)CCCl)cc1)[C@@H]1O[C@H](CO)[C@@H](O)[C@H](O[C@H](C)C(=O)O)[C@H]1NC(C)=O
5. CON(CCCc1ccc(N(CCCl)CCCl)cc1)C1O[C@H](C(=O)O)[C@H](O)[C@H](O)[C@H]1NC(C)=O (some centres not stated)
6. CON(CCCc1ccc(N(CCCl)CCCl)cc1)C1OC[C@H](O)[C@H](O)[C@H]1O (some centres not stated)

[3.00, 3.70, 3.52, 3.38, 3.58, 2.92]

Returns the measured log10 of GI50 for the input molecule. Input: CON(CCCc1ccc(N(CCCl)CCCl)cc1)C1C[C@@H](O)[C@@H](O)CO1 (some centres not stated)
3.59
